Source: ChEMBL document CHEMBL1158624

pIC50 for assorted compounds
- assay_system: Exportin-1 (Homo sapiens)
- Sequence (O14980 whole entry): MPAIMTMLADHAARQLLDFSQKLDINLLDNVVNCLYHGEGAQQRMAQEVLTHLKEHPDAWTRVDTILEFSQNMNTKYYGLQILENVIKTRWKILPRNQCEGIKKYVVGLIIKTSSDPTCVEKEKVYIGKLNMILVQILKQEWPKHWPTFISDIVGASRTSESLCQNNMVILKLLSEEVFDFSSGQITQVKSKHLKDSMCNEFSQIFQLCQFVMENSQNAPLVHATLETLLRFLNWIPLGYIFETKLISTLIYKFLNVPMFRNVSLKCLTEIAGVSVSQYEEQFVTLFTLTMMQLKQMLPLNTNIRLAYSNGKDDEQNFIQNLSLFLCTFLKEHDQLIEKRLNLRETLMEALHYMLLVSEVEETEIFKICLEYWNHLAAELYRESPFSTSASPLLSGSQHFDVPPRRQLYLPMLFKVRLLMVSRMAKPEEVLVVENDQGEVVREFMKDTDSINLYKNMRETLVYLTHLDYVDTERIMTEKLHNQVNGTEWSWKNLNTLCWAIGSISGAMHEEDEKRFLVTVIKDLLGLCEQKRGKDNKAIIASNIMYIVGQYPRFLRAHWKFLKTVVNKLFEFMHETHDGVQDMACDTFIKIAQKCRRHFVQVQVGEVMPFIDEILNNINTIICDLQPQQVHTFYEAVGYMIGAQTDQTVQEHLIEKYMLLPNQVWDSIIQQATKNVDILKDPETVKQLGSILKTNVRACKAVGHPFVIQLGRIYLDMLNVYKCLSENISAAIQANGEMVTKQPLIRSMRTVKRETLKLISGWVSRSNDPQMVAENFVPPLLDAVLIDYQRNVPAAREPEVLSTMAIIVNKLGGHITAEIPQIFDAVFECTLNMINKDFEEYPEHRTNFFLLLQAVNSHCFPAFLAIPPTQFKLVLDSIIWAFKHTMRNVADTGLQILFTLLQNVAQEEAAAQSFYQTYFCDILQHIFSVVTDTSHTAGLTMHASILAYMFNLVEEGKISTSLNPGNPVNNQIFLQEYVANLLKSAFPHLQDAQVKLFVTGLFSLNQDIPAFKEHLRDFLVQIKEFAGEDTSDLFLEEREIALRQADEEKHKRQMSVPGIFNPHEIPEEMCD
- protocol_details: Inhibition of CRM1-mediated hemagglutininin-tagged HIV1 Rev protein nuclear export in human HeLa cells assessed as nucleus localization after 12 hrs by indirect fluorescent antibody technique
Remember, pIC50 is on a log scale: it is -log10 of the molar concentration.

> print(dat)
                     compound               assay.system  readout  result
1  CC(C)=CCc1cccc2ccc(=O)oc12  Exportin-1 (Homo sapiens)    pIC50    5.19

Exercise: Please report the recorded pIC50 for COc1ccc2ccc(=O)oc2c1CC=C(C)C [OSTHOLE] .
Key: 5.80
